Hey, just so you know, these numbers are from PubChem BioAssay AID2060502.

system: 885724-159-R-J1-PDC complex spheroid viability; assay: Anticancer human tumor 885724-159-R-J1-PDC patient-derived pancreatic adenocarcinoma cell line growth inhibition [GQUAD]; settings: second compound 3.16 µM; first compound 3.16 µM; stronger effect = lower value;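 further: spheroids exposed to agents for seven days before readout; percent of vehicle control viability where 100% = DMSO wells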
Measured Metric: viability, T/C (%)
Give the number; % is assumed, so skip it.

Below, 4 compounds whose answers are already recorded.
CCCS(=O)(=O)Nc1ccc(F)c(C(=O)c2c[nH]c3ncc(-c4ccc(Cl)cc4)cc23)c1F + Cc1cnc(CNC(=O)c2c(=O)c3ccc(N4CCCN(C)CC4)nc3n3c2sc2ccccc23)cn1 | 91.6
COc1ccc([C@@H](O)c2cc(-c3ncnc4cc(N5CCOCC5)ccc34)c(F)cc2Cl)nn1 + Cc1cnc(CNC(=O)c2c(=O)c3ccc(N4CCCN(C)CC4)nc3n3c2sc2ccccc23)cn1 | 49.9
CCCS(=O)(=O)Nc1ccc(F)c(C(=O)c2c[nH]c3ncc(-c4ccc(Cl)cc4)cc23)c1F + CN(C)c1ccc(Nc2c3ccc(NC(=O)CCN4CCCC4)cc3nc3cc(NC(=O)CCN4CCCC4)ccc23)cc1 | 114
CC1COCCN1c1cc(C2(O)CC3CCC(C2)O3)c2cnn(-c3ccn[nH]3)c2n1 (stereo not given) + CN(C)c1ccc(Nc2c3ccc(NC(=O)CCN4CCCC4)cc3nc3cc(NC(=O)CCN4CCCC4)ccc23)cc1 | 33.4

Let's switch to this compound now.
Can you look up the measured viability, T/C of C=CC(=O)N1CCN(c2nc(=O)n(-c3c(C)ccnc3C(C)C)c3nc(-c4c(O)cccc4F)c(F)cc23)C(C)C1 (stereo not given) + Cc1[nH]c2ccc(F)cc2c1-c1nc2c3cccnc3c3ncccc3c2[nH]1 for me?
33.4
